- System: S. aureus ATCC 29213
- EXPERIMENT DESCRIPTION: Drug interaction study (chequerboard assay)
- Format: cell-based
- ASSAY CONTEXT: combination with Pt1; synergistic ≤0.5, indifferent >0.5 to 4, antagonistic >4
RECORDED METRIC: Interference

COMPOUND: C[C@@H](O)[C@H]1C(=O)N2C(C(=O)O)=C(S[C@@H]3CN[C@H](C(=O)N(C)C)C3)[C@H](C)[C@H]12
RECORDED METRIC: Interference
MEASURED RESULT: no interaction
//
COMPOUND: CCCCCCCCCC(=O)N[C@@H](Cc1c[nH]c2ccccc12)C(=O)N[C@H](CC(N)=O)C(=O)N[C@@H](CC(=O)O)C(=O)N[C@@H]1C(=O)NCC(=O)N[C@@H](CCCN)C(=O)N[C@@H](CC(=O)O)C(=O)N[C@H](C)C(=O)N[C@@H](CC(=O)O)C(=O)NCC(=O)N[C@H](CO)C(=O)N[C@@H]([C@H](C)CC(=O)O)C(=O)N[C@@H](CC(=O)c2ccccc2N)C(=O)O[C@@H]1C
RECORDED METRIC: Interference
MEASURED RESULT: no interaction
//
COMPOUND: CC(C)(O/N=C(\C(=O)N[C@@H]1C(=O)N2C(C(=O)[O-])=C(C[n+]3ccccc3)CS[C@H]12)c1csc(N)n1)C(=O)O
RECORDED METRIC: Interference
MEASURED RESULT: no interaction
//
COMPOUND: CC(=O)NC[C@H]1CN(c2ccc(N3CCOCC3)c(F)c2)C(=O)O1
RECORDED METRIC: Interference
MEASURED RESULT: no interaction
//
COMPOUND: CO[C@H]1/C=C/O[C@@]2(C)Oc3c(C)c(O)c4c(O)c(c(/C=N/N5CCN(C)CC5)c(O)c4c3C2=O)NC(=O)/C(C)=C\C=C\[C@H](C)[C@H](O)[C@@H](C)[C@@H](O)[C@@H](C)[C@H](OC(C)=O)[C@@H]1C
RECORDED METRIC: Interference
MEASURED RESULT: no interaction
//
COMPOUND: C[C@H]1COc2c(N3CCN(C)CC3)c(F)cc3c(=O)c(C(=O)O)cn1c23
RECORDED METRIC: Interference
MEASURED RESULT: no interaction
//
COMPOUND: C1=C\CC/C=C\CC/1.[Cl][Pt][Cl]
RECORDED METRIC: Interference
MEASURED RESULT: no interaction
//
COMPOUND: CNC(C)C1CCC(N)C(OC2C(N)CC(N)C(OC3OCC(C)(O)C(NC)C3O)C2O)O1 (stereo not shown)
RECORDED METRIC: Interference
MEASURED RESULT: no interaction
//
COMPOUND: CN[C@H](CC(C)C)C(=O)N[C@H]1C(=O)N[C@@H](CC(N)=O)C(=O)N[C@H]2C(=O)N[C@H]3C(=O)N[C@H](C(=O)N[C@H](C(=O)O)c4cc(O)cc(O)c4-c4cc3ccc4O)[C@H](O)c3ccc(c(Cl)c3)Oc3cc2cc(c3O[C@@H]2O[C@H](CO)[C@@H](O)[C@H](O)[C@H]2O[C@H]2C[C@](C)(N)[C@H](O)[C@H](C)O2)Oc2ccc(cc2Cl)[C@H]1O
RECORDED METRIC: Interference
MEASURED RESULT: no interaction
//
COMPOUND: CN(C)c1ccc(O)c2c1C[C@H]1C[C@H]3[C@H](N(C)C)C(O)=C(C(N)=O)C(=O)[C@@]3(O)C(O)=C1C2=O
RECORDED METRIC: Interference
MEASURED RESULT: no interaction

---

// MIC lookup, one value per entry
- Tested on: Bacillus subtilis MW168
- EXPERIMENT DESCRIPTION: MIC assay, B. subtilis MW168
- Type: cell-based
- ASSAY CONTEXT: B. subtilis MW168
RECORDED METRIC: MIC

COMPOUND: N.N.O=C([O-])C1(C(=O)[O-])CCC1.[Pt+2] [Carboplatin]
TEST SYSTEM: Bacillus subtilis MW168
RECORDED METRIC: MIC
MEASURED RESULT: > 100 µM
--
COMPOUND: O=C1[O][Pt]2([NH][C@@H]3CCCC[C@H]3[NH]2)[O]C1=O [Oxaliplatin]
TEST SYSTEM: Bacillus subtilis MW168
RECORDED METRIC: MIC
MEASURED RESULT: > 100 µM
--
COMPOUND: C1=C\CC/C=C\CC/1.[Cl][Pt][Cl] [Pt1]
TEST SYSTEM: Bacillus subtilis MW168
RECORDED METRIC: MIC
MEASURED RESULT: 6.25 µM
--
COMPOUND: N.N.[Cl][Pt][Cl] [CisPt, cisplatin]
TEST SYSTEM: Bacillus subtilis MW168
RECORDED METRIC: MIC
MEASURED RESULT: >100 µM

---

- Tested on: 36th Passage S.aureus ATCC 29213 in the presence of Pt-1
- EXPERIMENT DESCRIPTION: microbe, parasite or virus in culture
- Assay type: cell-based
- ASSAY CONTEXT: Staphylococcus aureus, ATCC29213
// MIC lookup, one value per entry
RECORDED METRIC: MIC (µg/mL)

COMPOUND: C[C@H]1COc2c(N3CCN(C)CC3)c(F)cc3c(=O)c(C(=O)O)cn1c23 [Levofloxacin]
TEST SYSTEM: 36th Passage S.aureus ATCC 29213 in the presence of Pt-1
RECORDED METRIC: MIC
MEASURED RESULT: 0.25
--
COMPOUND: CO[C@H]1/C=C/O[C@@]2(C)Oc3c(C)c(O)c4c(O)c(c(/C=N/N5CCN(C)CC5)c(O)c4c3C2=O)NC(=O)/C(C)=C\C=C\[C@H](C)[C@H](O)[C@@H](C)[C@@H](O)[C@@H](C)[C@H](OC(C)=O)[C@@H]1C [Rifampicin]
TEST SYSTEM: 36th Passage S.aureus ATCC 29213 in the presence of Pt-1
RECORDED METRIC: MIC
MEASURED RESULT: 0.0156
--
COMPOUND: CC(C)(O/N=C(\C(=O)N[C@@H]1C(=O)N2C(C(=O)[O-])=C(C[n+]3ccccc3)CS[C@H]12)c1csc(N)n1)C(=O)O [Ceftazidime]
TEST SYSTEM: 36th Passage S.aureus ATCC 29213 in the presence of Pt-1
RECORDED METRIC: MIC
MEASURED RESULT: 16
